Recorded MIC values (E. fecalis) are given below.

Reference set, count: 3
{"molecule": "CCc1cc(Nc2cc(=O)n(CCOCCO)c(=O)[nH]2)ccc1C", "MIC": "5 µg/mL"}
{"molecule": "CCc1cc(Nc2cc(=O)n(CCCCCNC[C@@H]3CCN(C(=O)OC(C)(C)C)C3)c(=O)[nH]2)ccc1C", "MIC": "40 µg/mL"}
{"molecule": "CCc1cc(Nc2cc(=O)n(CCCCCN3CC=C(c4cccs4)CC3)c(=O)[nH]2)ccc1C", "MIC": "20 µg/mL"}

Query: // fetch MIC; item: CCc1cc(Nc2cc(=O)n(CCCCN3CCN(c4ccc(F)cc4)CC3)c(=O)[nH]2)ccc1C ; system: E. fecalis
Result: 10 µg/mL

Query: State the measured MIC (E. fecalis) of CCc1cc(Nc2cc(=O)n(CCCCN3CCN(Cc4ccccc4)CC3)c(=O)[nH]2)ccc1C
Result: 10 µg/mL

Query: # return MIC of CCc1cc(Nc2cc(=O)n(CCCCCN3CCc4c([nH]c5ccc(OC)cc45)C3C(=O)O)c(=O)[nH]2)ccc1C (stereo not drawn) (system: E. fecalis)
Result: 80 µg/mL

====

- Tested on: E. fecium
value.type: MIC (µg/mL)
Provide the reading as a plain figure in µg/mL.

Query: Provide the reported MIC (system: E. fecium) for CCc1cc(Nc2cc(=O)n(C/C=C/CO)c(=O)[nH]2)ccc1C
Result: 2.5

Query: Please report MIC with E. fecium for item CCc1cc(Nc2cc(=O)n(CCCCN3CC=C(c4ccc(C)c(C)c4)CC3)c(=O)[nH]2)ccc1C .
Result: 10

Query: Report value: MIC, system: E. fecium, compound: CCc1cc(Nc2cc(=O)n(CCCCNC(=O)C3CC3)c(=O)[nH]2)ccc1C
Result: 2.5

Query: Lab note: E. fecium assay, enter MIC for CCc1cc(Nc2cc(=O)n(CCCCN3CC=C(c4ccc5c(c4)OCO5)CC3)c(=O)[nH]2)ccc1C here
Result: 5

====

- target.entity: B.subtilis pol IIIC (Bacillus subtilis, UniProt P13267)
- Sequence (P13267 whole entry): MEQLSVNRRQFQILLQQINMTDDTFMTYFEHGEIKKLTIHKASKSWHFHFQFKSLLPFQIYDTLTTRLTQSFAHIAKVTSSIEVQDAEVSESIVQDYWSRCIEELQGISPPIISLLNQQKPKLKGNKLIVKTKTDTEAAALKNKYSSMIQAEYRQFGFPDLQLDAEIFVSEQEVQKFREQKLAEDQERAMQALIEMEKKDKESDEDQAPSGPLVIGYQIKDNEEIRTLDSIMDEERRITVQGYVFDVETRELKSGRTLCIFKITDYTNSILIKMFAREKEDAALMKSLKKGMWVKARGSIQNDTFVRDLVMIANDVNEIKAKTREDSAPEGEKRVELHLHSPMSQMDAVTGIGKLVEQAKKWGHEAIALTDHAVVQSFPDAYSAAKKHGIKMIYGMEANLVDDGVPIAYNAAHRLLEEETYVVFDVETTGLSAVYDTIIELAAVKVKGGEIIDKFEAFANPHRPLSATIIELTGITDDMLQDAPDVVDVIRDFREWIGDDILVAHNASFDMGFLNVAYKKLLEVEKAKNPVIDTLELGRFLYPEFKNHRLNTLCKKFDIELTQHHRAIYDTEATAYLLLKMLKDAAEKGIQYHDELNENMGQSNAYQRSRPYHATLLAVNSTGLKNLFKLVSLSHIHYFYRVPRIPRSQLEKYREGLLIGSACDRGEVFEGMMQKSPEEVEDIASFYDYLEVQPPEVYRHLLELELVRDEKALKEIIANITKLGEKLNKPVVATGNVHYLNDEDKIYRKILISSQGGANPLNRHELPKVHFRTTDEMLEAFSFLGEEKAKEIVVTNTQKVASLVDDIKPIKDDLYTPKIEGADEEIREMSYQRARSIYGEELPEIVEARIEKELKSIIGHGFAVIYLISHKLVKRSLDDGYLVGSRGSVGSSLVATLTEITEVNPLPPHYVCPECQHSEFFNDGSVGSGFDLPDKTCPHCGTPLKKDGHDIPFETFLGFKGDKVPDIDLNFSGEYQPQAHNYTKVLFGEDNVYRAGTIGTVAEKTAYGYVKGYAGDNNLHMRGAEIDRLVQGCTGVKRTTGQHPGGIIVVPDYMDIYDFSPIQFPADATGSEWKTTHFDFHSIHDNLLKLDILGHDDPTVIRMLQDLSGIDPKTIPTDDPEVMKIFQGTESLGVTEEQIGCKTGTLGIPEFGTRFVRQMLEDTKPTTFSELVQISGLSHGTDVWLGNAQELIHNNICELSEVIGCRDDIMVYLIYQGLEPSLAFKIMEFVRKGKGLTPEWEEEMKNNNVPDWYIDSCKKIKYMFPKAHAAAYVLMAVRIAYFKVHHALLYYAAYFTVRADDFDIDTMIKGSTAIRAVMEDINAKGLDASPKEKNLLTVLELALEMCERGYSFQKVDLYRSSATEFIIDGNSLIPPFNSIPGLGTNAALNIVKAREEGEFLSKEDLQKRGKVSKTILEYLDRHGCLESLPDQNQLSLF
- assay.method.text: biochemical
Form field: Ki (one value per entry).
The reply should contain only the number, in nM.

Query: Note Ki for the compound shown: CCc1cc(Nc2cc(=O)n(CCCC#N)c(=O)[nH]2)ccc1C
Result: 140

Query: Give me measured Ki, please, for this compound: CCc1cc(Nc2cc(=O)n(CCCCCN3CC=C(c4ccc(F)cc4)CC3)c(=O)[nH]2)ccc1C
Result: 98

Query: Quick one: give measured Ki for CCc1cc(Nc2cc(=O)n(CCCCOC(=O)N3CCOCC3)c(=O)[nH]2)ccc1C
Result: 71

Query: Give me measured Ki, please, for this compound: CCc1cc(Nc2cc(=O)n(CCCC(C)=O)c(=O)[nH]2)ccc1C
Result: 61
